B1: ANKRD9 (parent)
chain: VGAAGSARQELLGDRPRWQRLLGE

- Variants of: B1
- assay: protein stability index of a GFP-peptide fusion (GPS, HEK-293T) (PSI 1-6); higher = more stable;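 also: lentivirally expressed fusions sorted by FACS into six bins by GFP to DsRed ratio, PSI derived from sequencing read proportions per bin multiplied by bin number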
- run-parameters: c terminus: a fixed tail appended
# reported protein stability index; entries follow

mutation-string: L22Y
protein stability index: 2.42
--
mutation-string: G23H
protein stability index: 2.61
--
mutation-string: A3F
protein stability index: 2.52
--
mutation-string: A4M
protein stability index: 3.1
--
mutation-string: E10S
protein stability index: 3.54
--
mutation-string: L11C
protein stability index: 3.22
